- target-system: Torsin-1A-interacting protein 1 (Homo sapiens) (UniProt Q5JTV8)
- Sequence (Q5JTV8 whole entry, looked up): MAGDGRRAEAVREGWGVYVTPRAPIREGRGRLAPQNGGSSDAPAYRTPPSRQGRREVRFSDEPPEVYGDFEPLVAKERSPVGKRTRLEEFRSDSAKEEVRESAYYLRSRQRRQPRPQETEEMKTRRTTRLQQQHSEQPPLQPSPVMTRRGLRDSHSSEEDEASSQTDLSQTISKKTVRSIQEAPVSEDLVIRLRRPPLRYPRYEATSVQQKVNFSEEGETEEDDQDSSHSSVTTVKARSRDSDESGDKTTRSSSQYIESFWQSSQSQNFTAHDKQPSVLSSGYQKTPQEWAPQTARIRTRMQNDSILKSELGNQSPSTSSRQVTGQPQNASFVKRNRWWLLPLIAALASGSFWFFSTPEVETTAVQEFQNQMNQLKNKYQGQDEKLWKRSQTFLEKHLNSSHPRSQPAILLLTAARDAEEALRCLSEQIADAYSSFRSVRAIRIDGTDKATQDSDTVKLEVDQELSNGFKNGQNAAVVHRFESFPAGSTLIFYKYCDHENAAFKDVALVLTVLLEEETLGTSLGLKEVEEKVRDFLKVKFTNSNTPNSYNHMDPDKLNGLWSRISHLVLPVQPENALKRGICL
- test-summary: LAP1 binders from COS7 cell lysate, primary screen, small-molecule microarray, 635/667 nm fluorescence (AID 1116)
- condition-notes: COS7-hLAP1 lysate binding, 635 nm fluorescence, higher = more signal
Entries annotated with measured composite z-score

[
  {
    "compound": "C[C@]12CCC3c4ccc(OCC5CO5)cc4CCC3C1CC[C@@H]2O (stereo partly specified)",
    "composite z-score": 0.542
  },
  {
    "compound": "CCOC(=O)[C@H](CC(C)C)NC(=O)CCC1CC(OC(=O)NCCc2ccc(F)cc2)CC2(CCCC(COC(=O)NCc3cccc(C(F)(F)F)c3)O2)O1 (stereo partly specified)",
    "composite z-score": 0.274
  },
  {
    "compound": "C=C(C)C(=O)OC[C@H]1CN2[C@@H](CC[C@@H](C)[C@@H]2c2ccc(Br)cc2)C(=O)O1",
    "composite z-score": -0.273
  },
  {
    "compound": "COC(=O)CC=C[C@@H](C)[C@@H](C=NOC[C@@H](C)[C@H](OCc1ccccc1)C(C)C)OC",
    "composite z-score": -0.062
  },
  {
    "compound": "COc1cccc([C@H]2Oc3ccc(OC)cc3C(=NO[C@@H](C)c3cc(-c4c(C)cc(C)cc4C)no3)[C@@H]2O)c1",
    "composite z-score": -0.589
  },
  {
    "compound": "Cc1cc2c(nc1C)CCCCN2CC(O)CN1CCCc2nc(-c3ccc(Br)cc3)ccc21 (stereo unspecified)",
    "composite z-score": 0.404
  },
  {
    "compound": "CCCNC(=O)OC[C@H]1O[C@H](CCON=C[C@@H](C)[C@H](OCc2ccccc2)C(C)C)C=C[C@@H]1Oc1ccc(OC)cc1",
    "composite z-score": -0.163
  },
  {
    "compound": "COC(=O)CC=C[C@@H](C)[C@@H](C=NOC(C)CN1CCCCc2nc(C)c(C)cc21)NS(=O)(=O)c1ccc(C)cc1 (stereo partly specified)",
    "composite z-score": 0.0017
  },
  {
    "compound": "CC(=O)OC[C@H]1O[C@H](C#CCC2CCCCC2)C=C[C@@H]1OC(C)=O",
    "composite z-score": 0.471
  },
  {
    "compound": "C=CC[C@@H]1C=C[C@H](ON=C2C[C@@H](O)[C@@H](O)[C@@H]3[C@@H]4C(=O)N(CC)C(=O)[C@@H]4CC[C@@H]23)[C@@H](CO)O1",
    "composite z-score": -0.164
  },
  {
    "compound": "O=C1[C@H]2CCn3c(=O)n(Cc4cc5c(cc4Cl)OCO5)c(=O)n3[C@H]2[C@H](O)[C@@H]2O[C@H]12",
    "composite z-score": 0.054
  },
  {
    "compound": "CC(CCC(=O)OC[C@H]1O[C@H](C#Cc2ccccc2)C=C[C@@H]1Oc1ccc(C)cc1)=NOC[C@@H](C)[C@H](OCc1ccccc1)C(C)C",
    "composite z-score": -0.746
  },
  {
    "compound": "COc1ccc2c(c1)O[C@@H](c1cccc(C(F)(F)F)c1)[C@H](O)C2=O",
    "composite z-score": 0.342
  },
  {
    "compound": "CC(CCN1CCCCc2nc(C)c(C)cc21)=NO[C@H](C)c1cn([C@@H]2COC[C@H]2O)nn1",
    "composite z-score": 0.337
  },
  {
    "compound": "CC(C)CN1CCc2nc(-c3ccccc3)c3c(c2C1)CO[C@@H](C)C3",
    "composite z-score": 0.152
  },
  {
    "compound": "CO[C@H]1COC(=O)[C@H](C)COC(=O)[C@@H](OCc2ccccc2)C=C[C@@H]1C",
    "composite z-score": -0.149
  }
]

Values from PubChem BioAssay
